The reported measurements were obtained from patent US8889704B2.

Counter-ions that a name gives are not always drawn.
reported-property: IC50 (nM)
Output spec: scalar in nM, unitless text.

// query Lab note: need IC50 with PIM-1 (Homo sapiens, UniProt P11309) for entry N[C@H]1CCN([C@H](c2ccc3nnc(-c4ccc5ccc(O[C@@H]6CCC[C@H]6O)cc5n4)n3c2)C(F)(F)F)C1 (single isomer, unassigned; diastereomer 2) [Example 320, di-hydrochloride] , please look it up.
Sequence (P11309 whole entry, species assumed): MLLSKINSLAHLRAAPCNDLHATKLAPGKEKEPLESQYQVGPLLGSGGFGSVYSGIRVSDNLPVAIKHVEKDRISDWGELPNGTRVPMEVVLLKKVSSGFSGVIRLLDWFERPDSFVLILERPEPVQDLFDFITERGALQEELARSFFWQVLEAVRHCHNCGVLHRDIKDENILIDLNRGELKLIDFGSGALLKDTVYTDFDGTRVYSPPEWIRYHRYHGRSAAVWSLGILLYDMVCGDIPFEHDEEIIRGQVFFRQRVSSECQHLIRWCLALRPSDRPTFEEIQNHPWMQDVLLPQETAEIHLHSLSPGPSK
// result 0.14

// query Lab note: need IC50 with PIM-1 (Homo sapiens, UniProt P11309) for entry COc1cccc2ccc(-c3nnc4ccc([C@@H](N5CC[C@H](N)C5)C(F)(F)F)cn34)nc12 [Example 9, dihydrochloride] , please look it up.
// result 0.68

// query Lab note: need IC50 with PIM-1 (Homo sapiens, UniProt P11309) for entry Cc1oc(=O)oc1COC(=O)N[C@H]1CCN([C@H](c2ccc3nnc(-c4ccc5cc(F)c(OCCO)cc5n4)n3c2)C(F)(F)F)C1 [Example 321] , please look it up.
// result 1.68

// query Lab note: need IC50 with PIM-1 (Homo sapiens, UniProt P11309) for entry CCOCCOc1ccc2ccc(-c3nnc4ccc([C@H](N5CC[C@](C)(N)C5)C(F)(F)F)cn34)nc2c1 [Example 306] , please look it up.
// result 0.28

// query Lab note: need IC50 with PIM-1 (Homo sapiens, UniProt P11309) for entry CC(C)Oc1cccc2ccc(-c3nnc4ccc([C@H](N5CC[C@@](C)(N)C5)C(F)(F)F)cn34)nc12 [Example 90, dihydrochloride] , please look it up.
// result 2.26

// query Lab note: need IC50 with PIM-1 (Homo sapiens, UniProt P11309) for entry CCOCCOc1ccc2ccc(-c3nnc4ccc([C@@H](N5CC[C@H](N)C5)C(F)(F)F)cn34)nc2c1 [Example 274, dihydrochloride] , please look it up.
// result 0.4

// query Lab note: need IC50 with PIM-1 (Homo sapiens, UniProt P11309) for entry Cn1cc(-c2ccc3ccc(-c4nnc5ccc([C@H](N6CC[C@H](N)C6)C(F)(F)F)cn45)nc3c2)cn1 (single isomer, unassigned) [Example 14, tri-hydrochloride] , please look it up.
// result 0.15
